# system_name: T1, wild-type EGFR protein on the surfaces of A431 tumor cells and normal human primary hepatocytes (human, UniProt P00533 25-1210)
# T1 construct: whole, on cells; Same protein on two cell types; also called human epidermal growth factor receptor; her-1
# protocol_summary: FACS, MFI on A431 cells over MFI on normal primary hepatocytes
parameter: Selective window (MFIA431/Hepatocytes)

Req: So what's the measured Selective window (MFIA431/Hepatocytes) for this one? Humanized antibody h63A10A7-20 (antibody, human IgG1, V domains shown, Human IgG1 constant region, human kappa constant region) VH: QVQLVQSGAEVKKPGASVKVSCKASGYTFISFTMHWVRQAPGQGLEWIGYINPNSGYTKYNQKFKDKATLTRDTSTSTVYMELSSLRSEDTAVYYCTRGGGRGFAYWGQGTLVTVSS VL: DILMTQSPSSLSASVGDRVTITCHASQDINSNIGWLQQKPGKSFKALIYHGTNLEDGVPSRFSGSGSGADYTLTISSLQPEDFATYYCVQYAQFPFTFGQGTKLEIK
Resp: 15.4 ratio

Req: Same question for Humanized antibody h63A10A7-24 (antibody, human IgG1, V domains shown, Human IgG1 constant region, human kappa constant region) VH: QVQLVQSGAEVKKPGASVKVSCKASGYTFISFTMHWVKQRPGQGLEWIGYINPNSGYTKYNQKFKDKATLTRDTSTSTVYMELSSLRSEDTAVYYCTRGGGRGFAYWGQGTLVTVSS VL: DILMTQSPSSLSASVGDRVTITCHASQDINSNIGWLQQKPGKSFKALIYHGTNLEDGVPSRFSGSGSGTDYTLTISSLQPEDFATYYCVQYAQFPFTFGQGTKLEIK please.
Resp: 19.6 ratio

The reported numbers originate from patent US20210032351A1.
